Property: GI50; scope: individual compounds
tested on: RXF 393 renal; test: NCI tumour cell line growth inhibition, 48 h
Where a SMILES comes first, the peptide text is derived from it. Bridges are numbered along the chain shown (N, C = ends). [ ]: non-standard residue; d: D form. aThr = C[C@H](O)[C@H](N)C(=O)O

# compound, GI50
measured = [
    ("CC(C)C[C@@H]1NC(=O)[C@@H]2CCCN2C(=O)[C@@H]2CCCN2C(=O)[C@H](CC(C)C)NC(=O)[C@H](CO)NC(=O)[C@H](CCCCN)NC(=O)[C@H]([C@H](C)O)NC(=O)[C@@H]2CSSC[C@@H](NC1=O)C(=O)N[C@@H](Cc1ccccc1)C(=O)N1CCC[C@H]1C(=O)N[C@@H](CC(=O)O)C(=O)NCC(=O)N[C@@H](CCCN=C(N)N)C(=O)N2 (cyclo(C[aThr]KSLPPL[dC]FPDGR); disulfide 1-9)", "> 50 µM"),
    ("O=C(O)CN(CCN(CC(=O)O)CC(=O)O)CC(=O)O.[Mn+2]", "> 100 µM"),
    ("N#CC(C#N)=C/C=C(\\Sc1ccc(Cl)cc1)c1ccc(F)cc1", "5.36 µM"),
    ("COC12C(COC(=O)NCCO)C3=C(C(=O)C(C)=C(N)C3=O)N1CC1NC12 (stereo unspecified)", "141 µM"),
    ("C#Cc1ccc(-n2c(/C=C/c3ccc(O)cc3)nc3ncccc3c2=O)cc1", "1.48 µM"),
    ("COc1ccc(-c2cc(/C=C/C(=O)c3ccc(N)cc3)[nH]n2)cc1OC", "2.15 µM"),
]
